Recorded measurements of normalised response, one per entry
Test system: DU-4475
experiment_description: normalised response (% of control), CellTox Green; higher = less cell death (100 = DMSO, 0 = benzethonium chloride kill control)
test_conditions: incubation time: 72 h
The answer is to be given in %; state only the numeric part.

- compound: "CCCC(CCC)C(=O)O [Valproic acid] (100000 nM)"
  measurement_type: "normalised response"
  reported: 105
- compound: "COc1ccc(C2=N[C@@H](c3ccc(Cl)cc3)[C@@H](c3ccc(Cl)cc3)N2C(=O)N2CCNC(=O)C2)c(OC(C)C)c1 [Nutlin-3] (100 nM)"
  measurement_type: "normalised response"
  reported: 102
- compound: "C[C@@H]1CCN(C(=O)CC#N)C[C@@H]1N(C)c1ncnc2[nH]ccc12 [Tofacitinib] (5000 nM)"
  measurement_type: "normalised response"
  reported: 108
- compound: "CC(C)C[C@H](NC(=O)[C@H](Cc1ccccc1)NC(=O)c1cnccn1)B(O)O [Bortezomib] (1000 nM)"
  measurement_type: "normalised response"
  reported: 76.1
- compound: "O=C(c1ccc(OCCN2CCCCC2)cc1)c1c(-c2ccc(O)cc2)sc2cc(O)ccc12 [Raloxifene] (10000 nM)"
  measurement_type: "normalised response"
  reported: 99.6
- compound: "Cn1c(=O)c(F)c(Nc2ccc(I)cc2F)c2c(=O)n(C[C@@H](O)CO)cnc21 [TAK-733] (1000 nM)"
  measurement_type: "normalised response"
  reported: 70.7

Fill in: normalised response of COC(=O)C[C@](O)(CCCC(C)(C)O)C(=O)O[C@@H]1C(OC)=C[C@]23CCCN2CCc2cc4c(cc2[C@H]13)OCO4 [Omacetaxine] (1000 nM) is ___ 97.7

Data provenance: the supplement of paper PMC4862054
